Attribution: patent US12157746B2

- measured on: human TLR7 (Homo sapiens, UniProt Q9NYK1)
- Sequence (Q9NYK1 27-1049): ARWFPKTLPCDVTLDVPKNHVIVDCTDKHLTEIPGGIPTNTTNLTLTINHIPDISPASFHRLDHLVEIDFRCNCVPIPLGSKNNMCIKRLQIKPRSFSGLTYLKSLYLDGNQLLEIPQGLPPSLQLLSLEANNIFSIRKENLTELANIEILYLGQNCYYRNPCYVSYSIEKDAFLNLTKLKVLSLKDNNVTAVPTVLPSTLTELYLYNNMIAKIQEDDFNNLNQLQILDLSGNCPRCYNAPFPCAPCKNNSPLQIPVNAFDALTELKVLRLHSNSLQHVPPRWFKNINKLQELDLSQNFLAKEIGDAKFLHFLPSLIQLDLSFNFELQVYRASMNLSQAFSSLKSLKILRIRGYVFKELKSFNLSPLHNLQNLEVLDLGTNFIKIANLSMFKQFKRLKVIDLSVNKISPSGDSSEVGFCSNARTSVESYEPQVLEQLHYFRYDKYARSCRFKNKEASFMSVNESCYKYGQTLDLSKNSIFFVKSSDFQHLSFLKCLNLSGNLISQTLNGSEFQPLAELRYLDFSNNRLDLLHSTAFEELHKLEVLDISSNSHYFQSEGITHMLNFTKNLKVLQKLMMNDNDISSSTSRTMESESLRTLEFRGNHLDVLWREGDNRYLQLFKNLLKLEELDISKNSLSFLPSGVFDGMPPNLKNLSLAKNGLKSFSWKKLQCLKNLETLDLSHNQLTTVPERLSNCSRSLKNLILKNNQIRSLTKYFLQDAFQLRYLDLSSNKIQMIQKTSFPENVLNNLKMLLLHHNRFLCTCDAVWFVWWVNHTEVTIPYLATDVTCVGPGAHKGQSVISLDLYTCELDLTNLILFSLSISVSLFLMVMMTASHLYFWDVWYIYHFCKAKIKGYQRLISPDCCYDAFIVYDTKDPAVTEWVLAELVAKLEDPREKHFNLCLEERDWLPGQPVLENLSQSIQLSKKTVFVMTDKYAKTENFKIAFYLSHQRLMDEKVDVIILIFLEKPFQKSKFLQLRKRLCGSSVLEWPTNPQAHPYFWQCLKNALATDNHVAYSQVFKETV
- run description: HEK293-Blue-hTLR-7 cells assay
- conditions used: HEK293-Blue-hTLR7 cells, R848 stimulation, 20 hrs, SEAP reporter; read-out: HEK/hTLR7 IC50
pIC50: −log10 of the molar value.
Class fulfilled: pIC50 at least 8. Class not fulfilled: pIC50 below 8.

                                   compound        cat
0  C[C@@H]1CN(c2ccc(C#N)c3ncccc23)C[C@@H]2c3cccc(N4CCNCC4)c3CN12  fulfilled
1  C[C@@H]1CN(c2ccc(C#N)c3ncccc23)C[C@@H]2c3ccc(C(=O)N4CCC(C)(N)CC4)cc3CN12  fulfilled
2  C[C@@H]1CN(c2ccc(C#N)c3ncccc23)C[C@@H]2c3ccc(N4CC5CNCC(C4)O5)cc3CN12  fulfilled

Confirm if pIC50 reported for the compound C[C@@H]1CN(c2ccc(C#N)c3ncccc23)C[C@@H]2c3ccc(N4CCNC[C@H]4CO)cc3CN12 is 8 or above. fulfilled

Is pIC50 for C[C@@H]1CN(c2ccc(C#N)c3ncccc23)C[C@@H]2c3ccc(N[C@H]4CNC[C@H]4F)cc3CN12 at or above 8? fulfilled

Is pIC50 at least 8? Consider N#Cc1ccc(N2CCN3Cc4cc(N5CCNCC5)ccc4C3C2)c2cccnc12 (stereo not shown) not fulfilled
